- subjectOfTest: purified recombinant human insulin receptor-exon 11 (human) (UniProt P06213)
- Sequence (P06213 other isoform, or with tags, fused parts or gaps limits assumed, form in doubt): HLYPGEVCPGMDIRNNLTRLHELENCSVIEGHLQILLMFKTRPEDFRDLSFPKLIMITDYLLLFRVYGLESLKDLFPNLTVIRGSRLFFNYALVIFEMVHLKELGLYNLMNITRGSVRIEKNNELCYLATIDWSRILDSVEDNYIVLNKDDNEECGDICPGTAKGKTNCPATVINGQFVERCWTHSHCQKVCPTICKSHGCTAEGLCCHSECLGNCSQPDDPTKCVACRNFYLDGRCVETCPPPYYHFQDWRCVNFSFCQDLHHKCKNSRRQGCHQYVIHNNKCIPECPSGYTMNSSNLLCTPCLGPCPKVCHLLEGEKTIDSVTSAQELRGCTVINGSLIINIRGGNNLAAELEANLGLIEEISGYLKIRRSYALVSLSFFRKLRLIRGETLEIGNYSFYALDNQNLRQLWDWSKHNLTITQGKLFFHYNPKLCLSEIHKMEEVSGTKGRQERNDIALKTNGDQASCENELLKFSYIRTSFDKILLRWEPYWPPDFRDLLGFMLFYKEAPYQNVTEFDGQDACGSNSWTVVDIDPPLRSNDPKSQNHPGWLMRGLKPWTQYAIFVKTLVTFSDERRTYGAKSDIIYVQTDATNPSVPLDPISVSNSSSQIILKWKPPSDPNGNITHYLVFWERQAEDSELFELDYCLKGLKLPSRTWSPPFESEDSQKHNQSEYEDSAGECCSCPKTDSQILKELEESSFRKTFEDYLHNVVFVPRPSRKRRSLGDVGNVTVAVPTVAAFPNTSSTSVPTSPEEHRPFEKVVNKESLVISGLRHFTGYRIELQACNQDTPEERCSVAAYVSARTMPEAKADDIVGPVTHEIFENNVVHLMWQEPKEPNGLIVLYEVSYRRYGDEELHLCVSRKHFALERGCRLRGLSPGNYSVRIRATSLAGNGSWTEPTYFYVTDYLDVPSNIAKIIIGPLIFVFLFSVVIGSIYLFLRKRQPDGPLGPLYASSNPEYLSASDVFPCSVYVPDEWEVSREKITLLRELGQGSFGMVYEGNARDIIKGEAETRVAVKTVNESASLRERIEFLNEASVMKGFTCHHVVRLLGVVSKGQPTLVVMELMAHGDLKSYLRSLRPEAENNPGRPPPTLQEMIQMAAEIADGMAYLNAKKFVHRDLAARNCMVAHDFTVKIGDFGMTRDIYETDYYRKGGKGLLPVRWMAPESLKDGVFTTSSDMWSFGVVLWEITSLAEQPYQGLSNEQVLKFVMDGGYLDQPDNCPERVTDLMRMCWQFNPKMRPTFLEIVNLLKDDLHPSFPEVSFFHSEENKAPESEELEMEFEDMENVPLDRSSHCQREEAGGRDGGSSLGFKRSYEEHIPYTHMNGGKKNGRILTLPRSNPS
- testDetails: competition with 125I-insulin (SPA)
experimentalEndpoint: IR, binding relative to human insulin (%)

Input: Lab note: purified recombinant human insulin receptor-exon 11 (human) (UniProt P06213) assay, enter IR, binding relative to human insulin for single-chain insulin PAK 1723, connecting peptide VGSSRGK [A21G] (from UniProt P01308 25-53; P01308 90-110) (ligand) here
Output: 33

Input: Lab note: purified recombinant human insulin receptor-exon 11 (human) (UniProt P06213) assay, enter IR, binding relative to human insulin for single-chain insulin PAK 1821, connecting peptide TGLGSGK [B3Q_B29R_A18Q_A21G] (from UniProt P01308 25-53; P01308 90-110) (ligand) here
Output: 128

Input: Lab note: purified recombinant human insulin receptor-exon 11 (human) (UniProt P06213) assay, enter IR, binding relative to human insulin for single-chain insulin PAK 1769053, connecting peptide GVGSSSGK [A18Q_A21G] (from UniProt P01308 25-53; P01308 90-110) (ligand) here
Output: 37

Input: Lab note: purified recombinant human insulin receptor-exon 11 (human) (UniProt P06213) assay, enter IR, binding relative to human insulin for single-chain insulin PAK 1816, connecting peptide AGLGSGQ [B3Q_A18Q] (from UniProt P01308 25-53; P01308 90-110) (ligand) here
Output: 37

Input: Lab note: purified recombinant human insulin receptor-exon 11 (human) (UniProt P06213) assay, enter IR, binding relative to human insulin for single-chain insulin PAK 1767, connecting peptide AGRGSGP [A18Q_A21G] (from UniProt P01308 25-53; P01308 90-110) (ligand) here
Output: 28

I = single-chain insulin PAK 1866, connecting peptide VGLSSGQ [A18Q] (from UniProt P01308 25-53; P01308 90-110) (ligand)
II = single-chain insulin PAK 1864, connecting peptide TGLGSGK [B3K_A18Q_A21G] (from UniProt P01308 25-53; P01308 90-110) (ligand)
III = single-chain insulin PAK 1808, connecting peptide AGRGSGK [B1G_B3Q_A18Q_A21G] (from UniProt P01308 25-53; P01308 90-110) (ligand)
IV = single-chain insulin with connecting peptide RGSSGK (SEQ ID NO:114), no PAK number printed (from UniProt P01308 25-53; P01308 90-110) (ligand)
V = single-chain insulin PAK 1787, connecting peptide VGLSSGQ [A18Q_A21G] (from UniProt P01308 25-53; P01308 90-110) (ligand)
Input: Sort entries by IR, binding relative to human insulin from minimum to maximum value. Would you mind listing the labels in the order asked for?
Output: IV, III, V, I, II
(IV: 54%, III: 86%, V: 123%, I: 196%, II: 301%)

1 = single-chain insulin PAK 1790, connecting peptide VGLMSGK [A18Q_A21G] (from UniProt P01308 25-53; P01308 90-110) (ligand)
2 = single-chain insulin PAK 1800, connecting peptide AGRGSGK [A18Q_A21G] (from UniProt P01308 25-53; P01308 90-110) (ligand)
3 = single-chain insulin PAK 1893, connecting peptide TGLGSGQ [B10Q_A18Q] (from UniProt P01308 25-53; P01308 90-110) (ligand)
Input: Sort entries by IR, binding relative to human insulin from minimum to maximum value. Would you mind listing the labels in the order asked for?
Output: 3, 2, 1
